Origin of values: paper PMC3903617

biological target: T1, monocyte chemo-attractant protein-1 (MCP-1) (Homo sapiens (Human)., UniProt P13500); assay: SPR; Biacore T200; MCP-1 immobilised on a CM5 chip by amine coupling (~220 RU), scFv injected at 30 µl/min; PBS with 0.005% Tween-20; 25°C; global fit, 1:1 Langmuir model; KD from koff/kon; details: both partners purified
T1 construct: MCP-1 (monocyte chemo-attractant protein-1), chemokine; synthetic gene optimised for E. coli in pET26b; Probably the mature human chemokine, as in PDB 2BDN; also called monocyte chemotactic protein-1; antigen; source: E. coli Rosetta2 (DE3), purified (Ni-NTA, SEC)
Please go through the items and note down their kon.
One number for each entry, in M⁻¹ s⁻¹.

1) 11K2 scFv mutein H-D31E (scFv, V domains shown, PDB 2BDN heavy chain) with the stated change; PDB 2BDN light chain)) VH: EVQLQQSGAELVKAGASVKLSCPASGLNIKETYMHWVKQRPEQGLEWIGRIDPANGNTKFDPKFQGKATITADTSSNTAYLQLSSLTSEDTAVYYCARGVFGFFDYWGQGTTLTVSS VL: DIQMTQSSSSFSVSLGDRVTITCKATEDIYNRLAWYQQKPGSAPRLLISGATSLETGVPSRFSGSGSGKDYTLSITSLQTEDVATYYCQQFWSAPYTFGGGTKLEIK	30000

Here is another binder to look at.
**Query** Answer with reported kon of 11K2 scFv mutein H-L27K (scFv, V domains shown, PDB 2BDN heavy chain) with the stated change; PDB 2BDN light chain)) VH: EVQLQQSGAELVKAGASVKLSCPASGKNIKDTYMHWVKQRPEQGLEWIGRIDPANGNTKFDPKFQGKATITADTSSNTAYLQLSSLTSEDTAVYYCARGVFGFFDYWGQGTTLTVSS VL: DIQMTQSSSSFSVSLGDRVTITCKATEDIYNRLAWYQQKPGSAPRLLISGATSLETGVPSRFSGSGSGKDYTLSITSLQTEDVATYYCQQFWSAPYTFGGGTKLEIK
**Result** 110000
